- Test system: Escherichia coli
- Protocol summary: Antibacterial activity against Escherichia coli MTCC 443 assessed as diameter of zone of inhibition at 500 ug/ml by agar disk diffusion method
- Format: functional
- Protocol conditions: read-out: DIZ
# zone of inhibition at 500 µg/mL per record follows
Enter your answer as a number in mm; do not include the unit.

Example cases with answers are listed next.
Smiles data	Experimental result
CC(C)c1ccc(/C=N/CCNc2ccnc3cc(Cl)ccc23)cc1	10
Clc1ccc2c(NCC/N=C/c3ccccc3)ccnc2c1	10
Oc1ccc(/C=N/CCNc2ccnc3cc(Cl)ccc23)cc1	10
Clc1ccc2c(NCC/N=C/c3c[nH]c4ccccc34)ccnc2c1	10
FC(F)(F)c1ccc(/C=N/CCNc2ccnc3cc(Cl)ccc23)cc1	10

q: Let me know recorded zone of inhibition at 500 µg/mL for `COc1cc(/C=N/CCNc2ccnc3cc(Cl)ccc23)ccc1O` , thanks.
a: 9

q: Let me know recorded zone of inhibition at 500 µg/mL for `CN(C)c1ccc(/C=N/CCNc2ccnc3cc(Cl)ccc23)cc1` , thanks.
a: 10

q: Let me know recorded zone of inhibition at 500 µg/mL for `O=[N+]([O-])c1ccccc1/C=N/CCNc1ccnc2cc(Cl)ccc12` , thanks.
a: 11

q: Let me know recorded zone of inhibition at 500 µg/mL for `O=C1Nc2cc(Cl)ccc2/C1=N/CCNc1ccnc2cc(Cl)ccc12` , thanks.
a: 12

Data credit: ChEMBL document CHEMBL6078713
